- System: Echinochloa crus-galli (ECHCG)
- experimental.protocol: B2a post-emergence herbicidal activity
- Format: in vivo
- condition.details: Rate 1000 g/ha; evaluated after 13 days
readout.label: Control of ECHCG after post-emergence application (damage score 0-5)
Output spec: single numeric token, no unit.

Entry `CCOC(=O)C(=O)N(C)c1cn(-c2cncnc2)nc1C(F)(F)F` , Control of ECHCG after post-emergence application (damage score 0-5) reported as 1

Entry `CC(C)OC(=O)N(C)c1cc(-c2cncnc2)nn1C(F)F` , Control of ECHCG after post-emergence application (damage score 0-5) reported as 1

Entry `CC(C)OC(=O)Nc1cc(-c2cncnc2)nn1C(F)F` , Control of ECHCG after post-emergence application (damage score 0-5) reported as 1

Entry `CN(C(=O)OC(C)(C)C)c1cn(-c2cccnc2)nc1Cl` , Control of ECHCG after post-emergence application (damage score 0-5) reported as 4

Entry `Cc1nn(-c2cncnc2)cc1N(C)C(=O)Nc1c(C)noc1C` , Control of ECHCG after post-emergence application (damage score 0-5) reported as 0

Entry `CC(C)(C)OC(=O)Nc1cn(-c2cccnc2)nc1Cl` , Control of ECHCG after post-emergence application (damage score 0-5) reported as 2

* * *

- Tested on: Setaria faberi (SETFA)
- experimental.protocol: B2a post-emergence herbicidal activity
- Assay type: in vivo
- condition.details: Rate 1000 g/ha; evaluated after 13 days
readout.label: Control of SETFA after post-emergence application (damage score 0-5)
Output spec: single numeric token, no unit.

Entry CC(C)OC(=O)Nc1cc(-c2cncnc2)nn1C(F)F [Compound A58] , Control of SETFA after post-emergence application (damage score 0-5) reported as 3

Entry CCOC(=O)C(=O)N(C)c1cn(-c2cncnc2)nc1C(F)(F)F [Compound A43] , Control of SETFA after post-emergence application (damage score 0-5) reported as 1

Entry CC(C)(C)OC(=O)Nc1cn(-c2cccnc2)nc1Cl [Compound A57] , Control of SETFA after post-emergence application (damage score 0-5) reported as 3

Entry CN(C(=O)OC(C)(C)C)c1cn(-c2cccnc2)nc1Cl [Compound A60] , Control of SETFA after post-emergence application (damage score 0-5) reported as 4

Entry Cc1nn(-c2cncnc2)cc1N(C)C(=O)Nc1c(C)noc1C [Compound A45] , Control of SETFA after post-emergence application (damage score 0-5) reported as 0

Entry CC(C)OC(=O)N(C)c1cc(-c2cncnc2)nn1C(F)F [Compound A59] , Control of SETFA after post-emergence application (damage score 0-5) reported as 3

* * *

- Tested on: Avena fatua (AVEFA)
- experimental.protocol: B2 post-emergence herbicidal activity
- Assay type: in vivo
- condition.details: Rate 1000 g/ha; evaluated after 13 days
readout.label: Control of AVEFA after post-emergence application (damage score 0-5)

Avena fatua (AVEFA) data for `CCN(C(=O)OC(C)(C)C)c1cn(-c2cncnc2)nc1C(F)(F)F` ; its Control of AVEFA after post-emergence application (damage score 0-5): 1

Avena fatua (AVEFA) data for `Cc1nn(-c2cncnc2)cc1N(C)C(=O)Nc1ccc(C#N)cc1` ; its Control of AVEFA after post-emergence application (damage score 0-5): 0

Avena fatua (AVEFA) data for `CN(C(=O)NC(C)(C)C)c1cn(-c2cncc(F)c2)nc1C(F)(F)F` ; its Control of AVEFA after post-emergence application (damage score 0-5): 1

Avena fatua (AVEFA) data for `Cc1nn(-c2cncc(F)c2)cc1N(C)C(=O)OC(C)(C)C` ; its Control of AVEFA after post-emergence application (damage score 0-5): 3

Avena fatua (AVEFA) data for `Cc1nn(-c2cncnc2)cc1N(C)C1=NCCCCO1` ; its Control of AVEFA after post-emergence application (damage score 0-5): 0

Avena fatua (AVEFA) data for `CN(C(=O)OC(C)(C)C)c1cc(-c2cccnc2)nn1C` ; its Control of AVEFA after post-emergence application (damage score 0-5): 1

Avena fatua (AVEFA) data for `CCN(C(=O)OC(C)(C)C)c1cn(-c2cncc(F)c2)nc1C(F)(F)F` ; its Control of AVEFA after post-emergence application (damage score 0-5): 0

Avena fatua (AVEFA) data for `CN(C(=O)OC(C)(C)C)c1cn(-c2cncc(F)c2)nc1C(F)(F)F` ; its Control of AVEFA after post-emergence application (damage score 0-5): 3

Avena fatua (AVEFA) data for `Cc1nn(-c2cncnc2)cc1N(C)C(=O)NC1CCCCC1` ; its Control of AVEFA after post-emergence application (damage score 0-5): 3

Avena fatua (AVEFA) data for `CN(C(=O)OC(C)(C)C)c1cn(-c2cncnc2)nc1C(F)(F)F` ; its Control of AVEFA after post-emergence application (damage score 0-5): 1

Avena fatua (AVEFA) data for `CN(C(=O)Oc1ccccc1)c1cn(-c2cncc(F)c2)nc1C(F)(F)F` ; its Control of AVEFA after post-emergence application (damage score 0-5): 2

Avena fatua (AVEFA) data for `Cc1nn(-c2cncnc2)cc1N(C)C(=O)NC(C)(C)C` ; its Control of AVEFA after post-emergence application (damage score 0-5): 3

Avena fatua (AVEFA) data for `CC(C)(C)OC(=O)Nc1cn(-c2cncnc2)nc1C(F)(F)F` ; its Control of AVEFA after post-emergence application (damage score 0-5): 1

Avena fatua (AVEFA) data for `CN(C(=O)N(C)C(C)(C)C)c1cn(-c2cncnc2)nc1C(F)(F)F` ; its Control of AVEFA after post-emergence application (damage score 0-5): 2

Avena fatua (AVEFA) data for `Cc1nn(-c2cncnc2)cc1N(C)C(=O)OC(C)(C)C` ; its Control of AVEFA after post-emergence application (damage score 0-5): 0

* * *

Can you tell me Control of AVEFA after post-emergence application (damage score 0-5) for the items I'm about to list?
- Test system: Avena fatua (AVEFA)
- experimental.protocol: B2 post-emergence herbicidal activity
- Format: in vivo
- condition.details: Rate 1000 g/ha; evaluated after 13 days
Output spec: single numeric token, no unit.

Entry `CN(C(=O)OC(C)(C)C)c1cc(-c2cncnc2)nn1C` , Control of AVEFA after post-emergence application (damage score 0-5) reported as 4

Entry `CN(C(=O)OC(C)(C)C)c1c(Cl)c(-c2cccnc2)nn1C` , Control of AVEFA after post-emergence application (damage score 0-5) reported as 1

Entry `COC(=O)N(C)c1cn(-c2cncc(F)c2)nc1C(F)(F)F` , Control of AVEFA after post-emergence application (damage score 0-5) reported as 3

Entry `C=CCN(C(=O)OC(C)(C)C)c1cn(-c2cncc(F)c2)nc1C` , Control of AVEFA after post-emergence application (damage score 0-5) reported as 1

Entry `CCOC(=O)N(C)c1cn(-c2cncc(F)c2)nc1C(F)(F)F` , Control of AVEFA after post-emergence application (damage score 0-5) reported as 2

* * *

- Tested on: Oryza sativa (ORYSA)
- experimental.protocol: B1 pre-emergence herbicidal activity
- Type: in vivo
- condition.details: Rate 1000 g/ha; evaluated after 13 days
readout.label: Control of ORYSA after pre-emergence application (damage score 0-5)

Entry `CCOC(=O)N(C)c1cn(-c2cncc(F)c2)nc1C(F)(F)F` , Control of ORYSA after pre-emergence application (damage score 0-5) reported as 0

Entry `CCN(C(=O)OC(C)(C)C)c1cn(-c2cncnc2)nc1C(F)(F)F` , Control of ORYSA after pre-emergence application (damage score 0-5) reported as 0

Entry `CN(C(=O)NC(C)(C)C)c1cn(-c2cncc(F)c2)nc1C(F)(F)F` , Control of ORYSA after pre-emergence application (damage score 0-5) reported as 0

Entry `CN(C(=O)N(C)C(C)(C)C)c1cn(-c2cncnc2)nc1C(F)(F)F` , Control of ORYSA after pre-emergence application (damage score 0-5) reported as 1

Entry `CN(C(=O)OC(C)(C)C)c1cn(-c2cncc(F)c2)nc1C(F)(F)F` , Control of ORYSA after pre-emergence application (damage score 0-5) reported as 1

Entry `CN(C(=O)OC(C)(C)C)c1cc(-c2cccnc2)nn1C` , Control of ORYSA after pre-emergence application (damage score 0-5) reported as 1

Entry `Cc1nn(-c2cncnc2)cc1N(C)C(=O)OC(C)(C)C` , Control of ORYSA after pre-emergence application (damage score 0-5) reported as 2

Entry `CN(C(=O)OC(C)(C)C)c1c(Cl)c(-c2cccnc2)nn1C` , Control of ORYSA after pre-emergence application (damage score 0-5) reported as 1

Values from patent US10905123B2
